# Tested on: Mycobacterium tuberculosis Erdman (autoluminescent)
# ASSAY PROCEDURE: Einf, fitted maximum growth inhibition of three-drug combination (fraction); higher = stronger maximal inhibition
# CONDITIONS USED: in vitro model: cholesterol-high 0.2 mM; time point: constant (~7 days, model-specific)
Please enter Condition met where Einf is greater than or equal to 0.9, and Condition not met where it is lower.

Please review the following examples before continuing.
- COMPOUND: "NNC(=O)c1ccncc1 [isoniazid] + CC(=O)NC[C@H]1CN(c2ccc(N3CCOCC3)c(F)c2)C(=O)O1 [linezolid] + CO[C@H]1/C=C/O[C@@]2(C)Oc3c(C)c(O)c4c(O)c(c(/C=N/N5CCN(C6CCCC6)CC5)c(O)c4c3C2=O)NC(=O)/C(C)=C\\C=C\\[C@H](C)[C@H](O)[C@@H](C)[C@@H](O)[C@@H](C)[C@H](OC(C)=O)[C@@H]1C [rifapentine]"
  CLASS ASSIGNMENT: "Condition not met"
- COMPOUND: "COc1nc2ccc(Br)cc2cc1[C@@H](c1ccccc1)[C@@](O)(CCN(C)C)c1cccc2ccccc12 [bedaquiline] + COc1c(N2C[C@@H]3CCCN[C@@H]3C2)c(F)cc2c(=O)c(C(=O)O)cn(C3CC3)c12 [moxifloxacin] + CO[C@H]1/C=C/O[C@@]2(C)Oc3c(C)c(O)c4c(O)c(c(/C=N/N5CCN(C6CCCC6)CC5)c(O)c4c3C2=O)NC(=O)/C(C)=C\\C=C\\[C@H](C)[C@H](O)[C@@H](C)[C@@H](O)[C@@H](C)[C@H](OC(C)=O)[C@@H]1C [rifapentine]"
  CLASS ASSIGNMENT: "Condition met"

We now examine a further compound.
**Query** Can COc1nc2ccc(Br)cc2cc1[C@@H](c1ccccc1)[C@@](O)(CCN(C)C)c1cccc2ccccc12 [bedaquiline] + CC(C)/N=c1\cc2n(-c3ccc(Cl)cc3)c3ccccc3nc-2cc1Nc1ccc(Cl)cc1 [clofazimine] + NNC(=O)c1ccncc1 [isoniazid] be said to have Einf at or above 0.9?
**Result** Condition met
